The origin of these recorded values is PubChem BioAssay.

# MEASUREMENT_DESCRIPTION: reduced SW480 viability measured with CellTiter-Glo, NPC library, primary (AID 1117343)
# CONDITION_SUMMARY: CellTiter-Glo luminescence; at 20 µM (top of the series)
Calls of active or inactive are those of the source.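 How the source made its calls: active means compounds that lower viability of the colon cancer cells in the luminescence readout, with no numeric limit stated; inactive means the rest.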
// classify into yes (1) for active, no (0) for inactive

## Task Which outcome was assigned to `OCc1ccccc1O` in this test?
## Result no (0)

## Task Record request — test call for `CC(C)(C#N)c1cc(Cn2cncn2)cc(C(C)(C)C#N)c1`
## Result no (0)

## Task Test call for this molecule, please: `COc1ccc(CN2CCN(C(c3ccc(F)cc3)c3ccc(F)cc3)CC2)c(OC)c1OC`
## Result yes (1)

## Task Recorded call for CCN1CC(CCN2CCOCC2)C(c2ccccc2)(c2ccccc2)C1=O (centres undefined) ?
## Result no (0)

## Task Record lookup: outcome of this test for Clc1ccc(C(c2ccccc2Cl)C(Cl)Cl)cc1 (centres undefined) ?
## Result yes (1)

## Task So what was the verdict on `CC(=O)Nc1ccc(O)cc1` in this test?
## Result no (0)

## Task // param item: `COc1cnc(NS(=O)(=O)c2ccc(N)cc2)nc1` ; yields the recorded call
## Result no (0)

## Task Hey, what did the test say about `Cc1nnc(NS(=O)(=O)c2ccc(N)cc2)s1` ?
## Result yes (1)

## Task # outcome recorded in this test, key = `Nc1ccc(S(=O)(=O)Nc2ccnn2-c2ccccc2)cc1`
## Result no (0)

###

# MEASUREMENT_DESCRIPTION: blockers of polyQ-driven CASP3 activation – cell-based (AID 1583)
# CONDITION_SUMMARY: polyglutamine-induced caspase-3 activation, cell assay; stronger effect = higher value; concentration not given here
Assign inhibition to each entry below.
Quick reminder: number only, in %, skip the unit.

## Task Entry `Cc1ccc(C(=O)c2ccc(CC(=O)O)n2C)cc1` has what inhibition?
## Result 3.78

## Task I'd like to know its inhibition. The molecule in question is `O=C(O)CCCCCCCC(=O)O`
## Result -26.7

## Task Name the reported inhibition value associated with the molecule `COc1cccc(OC)c1C(=O)N[C@@H]1C(=O)N2[C@@H]1SC(C)(C)[C@@H]2C(=O)O`
## Result 11.5

## Task Can you look up the measured inhibition of CCN(CC)CCOC(=O)C(Cc1cccc2ccccc12)CC1CCCO1 (centres undefined) for me?
## Result -17.5

###

Please respond with reported viability decrease (inhibition) for every item in the list.
# MEASUREMENT_DESCRIPTION: NPC library primary testing for decreased DLD-1 cell viability via CellTiter-Glo (AID 1117346)
# CONDITION_SUMMARY: DLD-1 viability, CellTiter-Glo luminescence; at 20 µM (top of the series)
The source made the active and inactive calls.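 The calls were made as follows: active = compounds that lower survival of DLD-1 colon cancer cells in the luminescence readout, no cutoff given; inactive = the rest.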

## Task Fill in the blank: the reported viability decrease (inhibition) of `CCc1nn(CCCN2CCN(c3cccc(Cl)c3)CC2)c(=O)n1CCOc1ccccc1` is ____.
## Result 81.3% (active)

## Task Consider the compound `NC(=NCCCCCCN=C(N)/N=C(\N)Nc1ccc(Cl)cc1)/N=C(\N)Nc1ccc(Cl)cc1` and give its measured viability decrease (inhibition).
## Result 101% (active)

## Task Look up viability decrease (inhibition) for this compound: `CCO/C([O-])=N/c1c[n+](N2CCOCC2)no1`
## Result -1.5% (inactive)
